Assignment: determine reported pKd for the given binders.
Biological target: T1, extracellular domain of human BCMA (human, UniProt Q02223 1-54)
T1 construct: amine-linked to Octet AR2G tips; also called hsBCMA; BCMA (human)
T1 sequence: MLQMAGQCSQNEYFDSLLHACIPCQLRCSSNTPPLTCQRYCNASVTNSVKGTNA
Assay: Octet BLI; Fab 200 nM
FYI, pKd means -log10 of a concentration in mol per litre.

Need pKd of AB200-R1H32-R2Vk39 (Fab, V domains shown) VH: QVQLVQSGAEVKKPGSSVKVSCKASGGTFSNYWMHWVRQAPGQGLEWMGATYRSHSDTYYNQKFKSRVTITADKSTSTAYMELSSLRSEDTAVYYCARGAIYHGYDVIDNWGQGTLVTVSS VL: DIQMTQSPSSLSASVGDRVTITCRASQSISSYINWYQQKPGKAPKLLIYATSNIQSGVPSRFSGSGSGTDFTLTISSLQPEDFATYYCQQYRRLPWSFGQGTKLEIKR , thanks.
8.97

// pKd lookup, key: AB200-R1H32-R2Vk35 (Fab, V domains shown) VH: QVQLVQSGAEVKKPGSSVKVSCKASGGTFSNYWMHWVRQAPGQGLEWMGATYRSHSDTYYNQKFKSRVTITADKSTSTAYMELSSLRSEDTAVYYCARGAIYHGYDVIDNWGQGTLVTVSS VL: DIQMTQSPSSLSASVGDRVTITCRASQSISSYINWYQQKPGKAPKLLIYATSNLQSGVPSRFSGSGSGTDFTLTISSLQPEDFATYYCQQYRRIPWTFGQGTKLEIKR
9.07

Request the reported pKd associated with AB200-R1H32-R2Vk34 (Fab, V domains shown) VH: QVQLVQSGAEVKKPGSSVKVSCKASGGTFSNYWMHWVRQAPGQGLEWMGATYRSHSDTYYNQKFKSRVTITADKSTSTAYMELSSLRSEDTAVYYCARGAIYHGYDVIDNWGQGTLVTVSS VL: DIQMTQSPSSLSASVGDRVTITCRASQSISSYINWYQQKPGKAPKLLIYATSNLQSGVPSRFSGSGSGTDFTLTISSLQPEDFATYYCQQYRRLPWSFGQGTKLEIKR
8.95
